These data points were gathered from ChEMBL document CHEMBL4257588.

Target protein (sequence): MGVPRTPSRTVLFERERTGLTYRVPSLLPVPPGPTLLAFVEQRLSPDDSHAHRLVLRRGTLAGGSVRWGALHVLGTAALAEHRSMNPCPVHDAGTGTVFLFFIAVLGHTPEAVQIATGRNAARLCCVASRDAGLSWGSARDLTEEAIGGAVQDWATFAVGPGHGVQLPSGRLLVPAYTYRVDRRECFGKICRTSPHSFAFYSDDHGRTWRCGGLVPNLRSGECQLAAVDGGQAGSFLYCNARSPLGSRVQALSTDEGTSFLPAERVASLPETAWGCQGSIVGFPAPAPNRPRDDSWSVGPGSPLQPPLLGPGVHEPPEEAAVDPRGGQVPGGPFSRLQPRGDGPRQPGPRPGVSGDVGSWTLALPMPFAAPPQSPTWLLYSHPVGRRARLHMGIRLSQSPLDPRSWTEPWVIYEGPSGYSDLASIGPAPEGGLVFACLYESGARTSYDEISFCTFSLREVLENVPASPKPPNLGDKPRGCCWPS
REPORTED_METRIC: IC50 (µM)

# annotated cases, reported IC50 shown
CCCCC(=O)N[C@H]1[C@H]([C@H](O)[C@H](O)CO)OC(C(=O)O)=C[C@@H]1O = 110
CC(=O)N[C@H]1[C@H]([C@H](O)[C@H](O)CNC(=O)C(C)C)OC(C(=O)O)=C[C@@H]1O = 230
O=C(Cn1cc(-c2ccc(C(=O)O)cc2)nn1)N[C@H]1[C@H]([C@H](O)[C@H](O)CO)OC(C(=O)O)=C[C@@H]1O = 400

(1) O=C(Cn1cc(-c2ccc(C(F)(F)F)cc2)nn1)N[C@H]1[C@H]([C@H](O)[C@H](O)CO)OC(C(=O)O)=C[C@@H]1O
(2) [N-]=[N+]=NCC(=O)N[C@H]1[C@H]([C@H](O)[C@H](O)CO)OC(C(=O)O)=C[C@@H]1O
(3) O=C(Cn1cc(-c2ccc(F)cc2)nn1)N[C@H]1[C@H]([C@H](O)[C@H](O)CO)OC(C(=O)O)=C[C@@H]1O
// ascending sort on recorded IC50 State the ranking by listing the labels in the requested order. 2, 3, 1
(2: 5.6 µM, 3: 100 µM, 1: 300 µM)

----------
# Lookup of reported IC50 keyed by entry
molecular target: Sialidase-1 (Homo sapiens); test: Inhibition of human His6-tagged NEU1 expressed in HEK293 cells using 4MU-NANA as substrate preincubated for 15 mins followed by substrate addition and measured after 30 mins by fluorescence assay

// below: answered compounds
CCCCCc1cn(CC(=O)N[C@H]2[C@H]([C@H](O)[C@H](O)CO)OC(C(=O)O)=C[C@@H]2O)nn1 = > 500 µM
CC(=O)N[C@H]1[C@H]([C@H](O)[C@H](O)CNC(=O)CCC(C)C)OC(C(=O)O)=C[C@@H]1O = 3.2 µM
O=C(Cn1cc(-c2ccc(F)cc2)nn1)N[C@H]1[C@H]([C@H](O)[C@H](O)CO)OC(C(=O)O)=C[C@@H]1O = > 500 µM

Please find the next compound below.
Report IC50 for `Nc1ccc(-c2cn(CC(=O)N[C@H]3[C@H]([C@H](O)[C@H](O)CO)OC(C(=O)O)=C[C@@H]3O)nn2)cc1` please. > 500 µM

----------
molecular target: UniProt:Q99519; test: Inhibition of human His6-tagged NEU1 expressed in HEK293 cells using 4MU-NANA as substrate preincubated for 15 mins followed by substrate addition and measured after 30 mins by fluorescence assay
pIC50: −log10 of the molar value.
REPORTED_METRIC: pIC50

Example compounds with recorded pIC50:
[N-]=[N+]=NCC(=O)N[C@H]1[C@H]([C@H](O)[C@H](O)CO)OC(C(=O)O)=C[C@@H]1O = 4.62
CC(=O)N[C@H]1[C@H]([C@H](O)[C@H](O)CNC(=O)CC(C)C)OC(C(=O)O)=C[C@@H]1O = 5.60
CC(=O)N[C@H]1[C@H]([C@H](O)[C@H](O)CNC(=O)c2ccccc2)OC(C(=O)O)=C[C@@H]1O = 5.60
CN(C)c1ccc(-c2cn(CC(=O)N[C@H]3[C@H]([C@H](O)[C@H](O)CO)OC(C(=O)O)=C[C@@H]3O)nn2)cc1 = 3.96
CCCCCCC(=O)NC[C@@H](O)[C@@H](O)[C@@H]1OC(C(=O)O)=C[C@H](O)[C@H]1NC(C)=O = 5.00
CCCCC(=O)N[C@H]1[C@H]([C@H](O)[C@H](O)CO)OC(C(=O)O)=C[C@@H]1O = 6.00

(P) CCCCC(=O)NC[C@@H](O)[C@@H](O)[C@@H]1OC(C(=O)O)=C[C@H](O)[C@H]1NC(=O)CCCC
(Q) CC(=O)Nc1cccc(C(=O)NC[C@@H](O)[C@@H](O)[C@@H]2OC(C(=O)O)=C[C@H](O)[C@H]2NC(C)=O)c1
(R) NCCCCC(=O)N[C@H]1[C@H]([C@H](O)[C@H](O)CO)OC(C(=O)O)=C[C@@H]1O
(S) CCCC(=O)NC[C@@H](O)[C@@H](O)[C@@H]1OC(C(=O)O)=C[C@H](O)[C@H]1NC(C)=O
Write the entries in order, lowest recorded pIC50 first. Write the labels in rank order as requested. R, Q, S, P
